Listing of entries alongside the reported activity at 10 µM.
System: HCT-116
protocolDetails: NCI one-dose SRB assay
Type: cell-based
studyConditions: Homo sapiens, HCT-116 (Colon Cancer), 1.00E-5 Molar, read-out: Growth Percent
Kindly answer with a numeric value in %, unit omitted.

// worked examples, activity at 10 µM included
structure | targetUnderTest | unitText | readoutNumber
NS(=O)(=O)c1ccc(NC(=O)C(=Cc2ccc(Cl)cc2Cl)NC(=O)c2ccccc2)cc1 | HCT-116 | % | 97.3
NS(=O)(=O)c1ccc(NC(=O)C(=Cc2ccc(Cl)cc2)NC(=O)c2ccccc2)cc1 | HCT-116 | % | 93.9
COc1ccc(C=C(NC(=O)c2ccccc2)C(=O)Nc2ccc(S(N)(=O)=O)cc2)cc1OC | HCT-116 | % | 109

Please give the measured activity at 10 µM for this molecule: Cc1ccc(C=C(NC(=O)c2ccccc2)C(=O)Nc2ccc(S(N)(=O)=O)cc2)cc1
99.3

And COc1ccc(C=C(NC(=O)c2ccccc2)C(=O)Nc2ccc(S(N)(=O)=O)cc2)c(OC)c1 ?
104

And COc1ccc(C=C(NC(=O)c2ccccc2)C(=O)Nc2ccc(S(N)(=O)=O)cc2)cc1 ?
105

And Cc1ccc(C=C(NC(=O)c2ccccc2)C(=O)Nc2ccc(S(N)(=O)=O)cc2)o1 ?
89.1

And NS(=O)(=O)c1ccc(NC(=O)C(=Cc2ccc(Br)cc2)NC(=O)c2ccccc2)cc1 ?
92

----------
targetUnderTest: hCA IX (Homo sapiens, UniProt Q16790)
protocolDetails: stopped-flow CO2 hydrase assay
studyConditions: KI hCA II / KI hCA IX
Listing of entries alongside the reported Selectivity ratio II/IX.
Give the value as a plain number.

// worked examples, Selectivity ratio II/IX included
structure | targetUnderTest | readoutNumber
NS(=O)(=O)c1ccc(NC(=O)C(=Cc2ccc(Br)cc2)NC(=O)c2ccccc2)cc1 | hCA IX (Homo sapiens, UniProt Q16790) | 7.5
COc1ccc(C=C(NC(=O)c2ccccc2)C(=O)Nc2ccc(S(N)(=O)=O)cc2)c(OC)c1 | hCA IX (Homo sapiens, UniProt Q16790) | 4

Please give the measured Selectivity ratio II/IX for this compound: NS(=O)(=O)c1ccc(NC(=O)C(=Cc2ccc(Cl)cc2)NC(=O)c2ccccc2)cc1
7.8

And COc1ccc(C=C(NC(=O)c2ccccc2)C(=O)Nc2ccc(S(N)(=O)=O)cc2)cc1 ?
1.5

And NS(=O)(=O)c1ccc(NC(=O)C(=Cc2ccc(Cl)cc2Cl)NC(=O)c2ccccc2)cc1 ?
12.2

And Cc1ccc(C=C(NC(=O)c2ccccc2)C(=O)Nc2ccc(S(N)(=O)=O)cc2)cc1 ?
1.5

And Cc1ccc(C=C(NC(=O)c2ccccc2)C(=O)Nc2ccc(S(N)(=O)=O)cc2)o1 ?
13.8

And COc1ccc(C=C(NC(=O)c2ccccc2)C(=O)Nc2ccc(S(N)(=O)=O)cc2)cc1OC ?
3.6

----------
Listing of entries alongside the reported melting point.

// worked examples, melting point included
compound | result
COc1ccc(C=C(NC(=O)c2ccccc2)C(=O)Nc2ccc(S(N)(=O)=O)cc2)cc1OC [Compound 5g] | 250 to 253 °C
Cc1ccc(C=C(NC(=O)c2ccccc2)C(=O)Nc2ccc(S(N)(=O)=O)cc2)cc1 [Compound 5d] | 255 to 258 °C
NS(=O)(=O)c1ccc(NC(=O)C(=Cc2ccc(Cl)cc2Cl)NC(=O)c2ccccc2)cc1 [Compound 5b] | 265 to 267 °C

Please give the measured melting point for this compound: Cc1ccc(C=C(NC(=O)c2ccccc2)C(=O)Nc2ccc(S(N)(=O)=O)cc2)o1 [Compound 5h]
240 to 243 °C

----------
targetUnderTest: hCA IX (Homo sapiens)
protocolDetails: stopped-flow CO2 hydrase assay
studyConditions: KI hCA I / KI hCA IX
parameterMeasured: Selectivity ratio I/IX
Give the value as a plain number.

// worked examples, Selectivity ratio I/IX included
compound | readoutNumber
Cc1ccc(C=C(NC(=O)c2ccccc2)C(=O)Nc2ccc(S(N)(=O)=O)cc2)o1 [Compound 5h] | 985
COc1ccc(C=C(NC(=O)c2ccccc2)C(=O)Nc2ccc(S(N)(=O)=O)cc2)c(OC)c1 [Compound 5f] | 69.9
COc1ccc(C=C(NC(=O)c2ccccc2)C(=O)Nc2ccc(S(N)(=O)=O)cc2)cc1 [Compound 5e] | 12.9

Turning now to a further record.
Please give the measured Selectivity ratio I/IX for this compound: NS(=O)(=O)c1ccc(NC(=O)C(=Cc2ccc(Cl)cc2)NC(=O)c2ccccc2)cc1 [Compound 5a]
449.5

----------
Tested on: KM12
protocolDetails: NCI one-dose SRB assay
Type: cell-based
studyConditions: Homo sapiens, KM12 (Colon Cancer), 1.00E-5 Molar, read-out: Growth Percent
parameterMeasured: activity at 10 µM (%)
Kindly answer with a numeric value in %, unit omitted.

// worked examples, activity at 10 µM included
structure | activity at 10 µM (%)
NS(=O)(=O)c1ccc(NC(=O)C(=Cc2ccc(Cl)cc2)NC(=O)c2ccccc2)cc1 | 108
COc1ccc(C=C(NC(=O)c2ccccc2)C(=O)Nc2ccc(S(N)(=O)=O)cc2)c(OC)c1 | 109
COc1ccc(C=C(NC(=O)c2ccccc2)C(=O)Nc2ccc(S(N)(=O)=O)cc2)cc1OC | 104

# get_value(readout= activity at 10 µM, system= KM12) for NS(=O)(=O)c1ccc(NC(=O)C(=Cc2ccc(Br)cc2)NC(=O)c2ccccc2)cc1
102

----------
Test system: panel of sixty cancer cell lines
protocolDetails: NCI one-dose SRB assay, whole panel
Assay type: cell-based
studyConditions: Homo sapiens, mean over the panel, 1.00E-5 Molar, read-out: Mean Growth Percent
Listing of entries alongside the reported activity at 10 µM.

// worked examples, activity at 10 µM included
structure | result
COc1ccc(C=C(NC(=O)c2ccccc2)C(=O)Nc2ccc(S(N)(=O)=O)cc2)cc1 | 103%
Cc1ccc(C=C(NC(=O)c2ccccc2)C(=O)Nc2ccc(S(N)(=O)=O)cc2)cc1 | 102%
NS(=O)(=O)c1ccc(NC(=O)C(=Cc2ccc(Cl)cc2)NC(=O)c2ccccc2)cc1 | 100%
NS(=O)(=O)c1ccc(NC(=O)C(=Cc2ccc(Cl)cc2Cl)NC(=O)c2ccccc2)cc1 | 97%

# get_value(readout= activity at 10 µM, system= panel of sixty cancer cell lines) for COc1ccc(C=C(NC(=O)c2ccccc2)C(=O)Nc2ccc(S(N)(=O)=O)cc2)cc1OC
103%

And Cc1ccc(C=C(NC(=O)c2ccccc2)C(=O)Nc2ccc(S(N)(=O)=O)cc2)o1 ?
94.6%

And COc1ccc(C=C(NC(=O)c2ccccc2)C(=O)Nc2ccc(S(N)(=O)=O)cc2)c(OC)c1 ?
103%

And NS(=O)(=O)c1ccc(NC(=O)C(=Cc2ccc(Br)cc2)NC(=O)c2ccccc2)cc1 ?
97.3%

----------
System: SK-MEL-5
protocolDetails: NCI one-dose SRB assay
Format: cell-based
studyConditions: Homo sapiens, SK-MEL-5 (Melanoma), 1.00E-5 Molar, read-out: Growth Percent
Listing of entries alongside the reported activity at 10 µM.
Kindly answer with a numeric value in %, unit omitted.

structure | unitText | activity at 10 µM
Cc1ccc(C=C(NC(=O)c2ccccc2)C(=O)Nc2ccc(S(N)(=O)=O)cc2)o1 | % | 82.3
COc1ccc(C=C(NC(=O)c2ccccc2)C(=O)Nc2ccc(S(N)(=O)=O)cc2)cc1 | % | 100
COc1ccc(C=C(NC(=O)c2ccccc2)C(=O)Nc2ccc(S(N)(=O)=O)cc2)c(OC)c1 | % | 102

# get_value(readout= activity at 10 µM, system= SK-MEL-5) for NS(=O)(=O)c1ccc(NC(=O)C(=Cc2ccc(Cl)cc2Cl)NC(=O)c2ccccc2)cc1
90.2

And Cc1ccc(C=C(NC(=O)c2ccccc2)C(=O)Nc2ccc(S(N)(=O)=O)cc2)cc1 ?
97

And COc1ccc(C=C(NC(=O)c2ccccc2)C(=O)Nc2ccc(S(N)(=O)=O)cc2)cc1OC ?
99.3

And NS(=O)(=O)c1ccc(NC(=O)C(=Cc2ccc(Cl)cc2)NC(=O)c2ccccc2)cc1 ?
100

And NS(=O)(=O)c1ccc(NC(=O)C(=Cc2ccc(Br)cc2)NC(=O)c2ccccc2)cc1 ?
93.1

----------
Test system: SK-MEL-2
protocolDetails: NCI one-dose SRB assay
Type: cell-based
studyConditions: Homo sapiens, SK-MEL-2 (Melanoma), 1.00E-5 Molar, read-out: Growth Percent
Listing of entries alongside the reported activity at 10 µM.
Kindly answer with a numeric value in %, unit omitted.

// worked examples, activity at 10 µM included
compound | targetUnderTest | parameterMeasured | readoutNumber
Cc1ccc(C=C(NC(=O)c2ccccc2)C(=O)Nc2ccc(S(N)(=O)=O)cc2)o1 [Compound 5h] | SK-MEL-2 | activity at 10 µM | 97.4
Cc1ccc(C=C(NC(=O)c2ccccc2)C(=O)Nc2ccc(S(N)(=O)=O)cc2)cc1 [Compound 5d] | SK-MEL-2 | activity at 10 µM | 102
COc1ccc(C=C(NC(=O)c2ccccc2)C(=O)Nc2ccc(S(N)(=O)=O)cc2)c(OC)c1 [Compound 5f] | SK-MEL-2 | activity at 10 µM | 102
COc1ccc(C=C(NC(=O)c2ccccc2)C(=O)Nc2ccc(S(N)(=O)=O)cc2)cc1OC [Compound 5g] | SK-MEL-2 | activity at 10 µM | 102
NS(=O)(=O)c1ccc(NC(=O)C(=Cc2ccc(Cl)cc2Cl)NC(=O)c2ccccc2)cc1 [Compound 5b] | SK-MEL-2 | activity at 10 µM | 95.3

# get_value(readout= activity at 10 µM, system= SK-MEL-2) for COc1ccc(C=C(NC(=O)c2ccccc2)C(=O)Nc2ccc(S(N)(=O)=O)cc2)cc1 [Compound 5e]
102

And NS(=O)(=O)c1ccc(NC(=O)C(=Cc2ccc(Br)cc2)NC(=O)c2ccccc2)cc1 [Compound 5c] ?
97.3

And NS(=O)(=O)c1ccc(NC(=O)C(=Cc2ccc(Cl)cc2)NC(=O)c2ccccc2)cc1 [Compound 5a] ?
102
